Molecular target: D(2) dopamine receptor (Homo sapiens, UniProt P14416)
Sequence (P14416 whole entry): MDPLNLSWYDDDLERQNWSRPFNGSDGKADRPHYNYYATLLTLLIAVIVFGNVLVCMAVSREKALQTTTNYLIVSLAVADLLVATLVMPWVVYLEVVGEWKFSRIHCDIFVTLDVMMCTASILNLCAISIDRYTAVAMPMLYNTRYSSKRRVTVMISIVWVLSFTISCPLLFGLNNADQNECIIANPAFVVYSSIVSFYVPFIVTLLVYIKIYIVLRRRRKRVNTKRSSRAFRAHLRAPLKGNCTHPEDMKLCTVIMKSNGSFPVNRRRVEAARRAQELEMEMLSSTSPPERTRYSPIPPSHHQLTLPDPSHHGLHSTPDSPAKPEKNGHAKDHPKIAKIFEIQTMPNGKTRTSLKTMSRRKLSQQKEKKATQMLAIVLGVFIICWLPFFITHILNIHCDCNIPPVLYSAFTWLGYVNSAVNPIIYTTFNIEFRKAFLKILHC
Test: Displacement of [3H] Spiperone from human D2L receptor expressed in CHO cells by competitive radioligand binding assay
Format: cell-based
pKi: −log10 of the molar value.
MEASURED_QUANTITY: pKi

In [3]: df
Out[3]:
                               input_smiles  result
0  COc1ccc(N(Cc2cccc(F)c2)NC(=O)NCCCN2CCN(c3ccccc3OC)CC2)cc1    7.23
1  COc1ccccc1N1CCN(CCCNC(=O)NN(Cc2ccc(C#N)cc2)c2ccc(Cl)cc2Cl)CC1    6.82
2  C=C(C)CN(NC(=O)NCCCN1CCN(c2ccccc2OC)CC1)c1ccc(OC)cc1    6.68
3  O=C(NCCCN1CCN(c2ccc(I)cc2)CC1)NN(Cc1ccccc1)c1ccccc1    6.16

====

Measured Ki accompanies every entry in the list below.
Target: D(4) dopamine receptor (Homo sapiens, UniProt P21917)
Sequence (P21917 whole entry): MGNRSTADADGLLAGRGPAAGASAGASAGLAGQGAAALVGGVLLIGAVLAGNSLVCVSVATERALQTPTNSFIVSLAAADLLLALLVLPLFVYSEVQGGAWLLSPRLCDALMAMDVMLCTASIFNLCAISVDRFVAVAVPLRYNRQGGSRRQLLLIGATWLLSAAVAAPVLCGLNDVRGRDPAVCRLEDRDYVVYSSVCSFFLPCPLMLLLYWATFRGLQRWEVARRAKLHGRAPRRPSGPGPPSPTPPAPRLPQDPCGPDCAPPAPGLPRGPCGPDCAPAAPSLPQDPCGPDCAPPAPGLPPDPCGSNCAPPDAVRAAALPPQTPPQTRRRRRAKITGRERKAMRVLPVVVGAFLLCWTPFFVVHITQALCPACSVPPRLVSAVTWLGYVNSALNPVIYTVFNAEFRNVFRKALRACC
MEASURED_QUANTITY: Ki (nM)

>>> print(df.to_string())
                               input_smiles  measured_quantity  result
0  COc1ccc(N(Cc2cccc(F)c2)NC(=O)NCCCN2CCN(c3ccccc3OC)CC2)cc1                 Ki     6.2
1  COc1cccc(CN(NC(=O)NCCCN2CCN(c3ccccc3OC)CC2)c2ccc(F)cc2)c1                 Ki     5.9
2  COc1ccccc1N1CCN(CCCNC(=O)NN(Cc2ccc(C#N)cc2)c2ccc(F)cc2)CC1                 Ki      15
3  O=C(NCCCN1CCN(c2ccc(Cl)cc2)CC1)NN(Cc1ccccc1)c1ccccc1                 Ki     9.7

Data origin: ChEMBL document CHEMBL4321823
